system.name: Zinc finger protein mex-5 (Caenorhabditis elegans)
Sequence (Q9XUB2 whole entry): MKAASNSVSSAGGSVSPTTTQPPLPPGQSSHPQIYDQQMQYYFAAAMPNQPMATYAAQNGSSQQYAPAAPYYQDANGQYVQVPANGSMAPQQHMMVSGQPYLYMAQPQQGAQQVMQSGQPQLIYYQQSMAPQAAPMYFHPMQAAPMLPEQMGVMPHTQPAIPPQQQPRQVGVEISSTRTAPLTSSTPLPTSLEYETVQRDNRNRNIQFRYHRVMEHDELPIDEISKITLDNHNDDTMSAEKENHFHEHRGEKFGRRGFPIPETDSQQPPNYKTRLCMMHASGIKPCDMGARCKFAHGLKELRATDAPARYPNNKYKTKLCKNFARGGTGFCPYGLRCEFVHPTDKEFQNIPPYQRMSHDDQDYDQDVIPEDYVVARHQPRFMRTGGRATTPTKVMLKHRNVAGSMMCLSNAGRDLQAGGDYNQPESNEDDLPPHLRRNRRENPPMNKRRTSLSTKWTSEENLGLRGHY
assay.comment: MEX-5/TCR-2 RNA interaction inhibitors, dose response, biochemical, C. elegans, fluorescence polarization (AID 1960)
Calls of active or inactive are those of the source.
For each entry below, report its EC50 value.

[
  {
    "molecule": "COCc1cc(O)n2nc(-c3cccs3)cc2n1",
    "EC50": "> 300 µM (not active)"
  },
  {
    "molecule": "CCn1c(SCC(=O)Nc2cc(C)on2)nnc1-c1ccc(OC)cc1",
    "EC50": "> 300 µM (not active)"
  }
]

Could you report EC50 for every entry in the following list?
1. CC(=O)NC1=NC(=O)/C(=C/c2cc(C)n(-c3cccc(C(=O)O)c3)c2C)S1
2. Cc1ccc(C2c3sc(=O)[nH]c3SC3C(=O)NC(=O)C32)cc1 (centres undefined)
3. Cc1ccccc1NS(=O)(=O)c1cc(C(=O)N2CCCC2)ccc1C
4. C=CCN1C(=O)NC(=O)/C(=C/c2ccc(OCC(=O)Nc3ccc(C)cc3)cc2)C1=O
5. CN1C(=O)C(=Cc2cn(CC(=O)N3CCCCC3)c3ccccc23)C(=O)N(C)C1=O
6. CCN(CC)c1ccc(/C=N/C(C#N)=C(\N)C#N)cc1

1. > 300 µM (inconclusive)
2. 6.53 µM (inconclusive)
3. > 300 µM (not active)
4. > 300 µM (not active)
5. > 300 µM (not active)
6. 114 µM (inconclusive)

Any idea what its EC50 is? The molecule is `O=C(O)Cn1cc(/C=C2\C(=O)NC(=O)N(c3ccc(F)cc3)C2=O)c2ccccc21`
8.21 µM (active)

* * *

system.name: Histone-lysine N-methyltransferase NSD2 (Homo sapiens, UniProt O96028)
Sequence (O96028 whole entry): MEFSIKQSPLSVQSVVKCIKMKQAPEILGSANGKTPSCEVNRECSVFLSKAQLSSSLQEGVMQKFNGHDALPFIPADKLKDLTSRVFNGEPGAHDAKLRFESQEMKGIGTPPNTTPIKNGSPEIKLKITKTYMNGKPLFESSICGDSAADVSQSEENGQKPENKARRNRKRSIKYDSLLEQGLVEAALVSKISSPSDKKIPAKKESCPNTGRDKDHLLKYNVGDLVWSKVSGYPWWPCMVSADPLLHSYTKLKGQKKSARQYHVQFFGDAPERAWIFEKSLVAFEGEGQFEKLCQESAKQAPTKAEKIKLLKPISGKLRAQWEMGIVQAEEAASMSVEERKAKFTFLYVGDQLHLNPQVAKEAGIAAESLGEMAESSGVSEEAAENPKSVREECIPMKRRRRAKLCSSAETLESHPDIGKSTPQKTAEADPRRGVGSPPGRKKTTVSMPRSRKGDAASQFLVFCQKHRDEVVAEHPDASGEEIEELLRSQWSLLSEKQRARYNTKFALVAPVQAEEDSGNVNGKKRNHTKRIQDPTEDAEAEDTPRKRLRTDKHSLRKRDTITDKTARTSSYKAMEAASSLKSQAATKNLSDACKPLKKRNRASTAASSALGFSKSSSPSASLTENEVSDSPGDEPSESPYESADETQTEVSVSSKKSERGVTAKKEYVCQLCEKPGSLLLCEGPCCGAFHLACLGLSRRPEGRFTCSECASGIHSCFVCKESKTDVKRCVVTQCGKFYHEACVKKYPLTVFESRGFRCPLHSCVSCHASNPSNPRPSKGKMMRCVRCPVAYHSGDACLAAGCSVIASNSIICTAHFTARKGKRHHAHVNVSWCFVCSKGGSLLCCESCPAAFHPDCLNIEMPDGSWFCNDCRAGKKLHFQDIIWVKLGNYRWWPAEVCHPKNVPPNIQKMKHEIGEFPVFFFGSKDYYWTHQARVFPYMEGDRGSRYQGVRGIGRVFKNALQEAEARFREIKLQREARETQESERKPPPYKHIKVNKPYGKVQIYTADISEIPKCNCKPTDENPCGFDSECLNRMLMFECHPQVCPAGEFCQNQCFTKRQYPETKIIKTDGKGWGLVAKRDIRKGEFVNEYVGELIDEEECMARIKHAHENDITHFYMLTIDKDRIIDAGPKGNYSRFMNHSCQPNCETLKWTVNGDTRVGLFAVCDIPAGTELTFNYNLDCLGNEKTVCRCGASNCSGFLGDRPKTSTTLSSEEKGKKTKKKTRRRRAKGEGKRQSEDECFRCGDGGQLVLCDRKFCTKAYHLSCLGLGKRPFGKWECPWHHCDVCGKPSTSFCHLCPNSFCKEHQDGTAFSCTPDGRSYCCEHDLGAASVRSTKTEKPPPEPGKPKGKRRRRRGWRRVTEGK
Assay type: biochemical
Activity calls are given as the source filed them.
The reply should be one of these categories: 1 for active, 0 for inactive

The following compounds have reported results that may help.
[
  {
    "record.smiles": "O=C1NC(=S)S/C1=C\\c1cc2ccccc2nc1N1CCCCC1",
    "group.label": 1
  },
  {
    "record.smiles": "COc1cc(C(=O)c2nccc3cc(OC)c(OC)cc23)c([N+](=O)[O-])cc1OC",
    "group.label": 0
  },
  {
    "record.smiles": "N=C1S/C(=C\\c2ccc(-c3ccccc3C(=O)O)o2)C(=O)N1c1ccc2c(c1)OCO2",
    "group.label": 1
  },
  {
    "record.smiles": "O=C1NN(c2ccc(Cl)cc2)C(=O)/C1=C\\c1ccc(-c2cccc(C(=O)O)c2)o1",
    "group.label": 0
  },
  {
    "record.smiles": "CN1CCN(c2ccc(N)cc2Cl)CC1",
    "group.label": 0
  }
]

Next:
Assay result, entry `CC(=O)NC1=NC(=O)/C(=C/c2cc(C)n(-c3cccc(C(=O)O)c3)c2C)S1` — outcome?
1

* * *

system.name: Heat shock factor protein 1 (Mus musculus, UniProt P38532)
Sequence (P38532 whole entry): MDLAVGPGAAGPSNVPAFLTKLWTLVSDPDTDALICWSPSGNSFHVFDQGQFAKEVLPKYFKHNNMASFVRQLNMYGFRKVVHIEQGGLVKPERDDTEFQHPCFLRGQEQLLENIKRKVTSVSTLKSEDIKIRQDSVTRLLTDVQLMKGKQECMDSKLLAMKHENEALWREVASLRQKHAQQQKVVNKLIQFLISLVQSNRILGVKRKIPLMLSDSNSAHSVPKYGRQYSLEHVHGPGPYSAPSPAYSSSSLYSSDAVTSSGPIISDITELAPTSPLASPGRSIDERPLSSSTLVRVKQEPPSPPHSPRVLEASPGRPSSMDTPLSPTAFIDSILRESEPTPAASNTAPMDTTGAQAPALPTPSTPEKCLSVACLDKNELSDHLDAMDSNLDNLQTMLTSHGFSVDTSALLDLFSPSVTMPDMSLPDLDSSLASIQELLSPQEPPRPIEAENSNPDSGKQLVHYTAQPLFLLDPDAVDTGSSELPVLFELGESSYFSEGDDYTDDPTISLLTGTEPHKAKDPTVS
assay.comment: inhibition of MG132-induced HSE-luciferase signal, confirmation, cell-based, NIH3T3, luminescence, dose retest (AID 2382);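 further: NIH3T3 fibroblasts with HSF1-driven luciferase reporter stressed by proteasome inhibitor MG132; luminescence from HSF1-driven luciferase expression after 8 hours of MG132 stress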
Format: functional
Calls of active or inactive are those of the source.
reported.property: EC50

Could you report EC50 for every entry in the following list?
1. CCOC(=O)C1(CC2CCCCO2)CCN(Cc2nc3ccccc3[nH]2)CC1 (stereo not drawn)
2. N#C/C(=C/c1cc(Br)cs1)C(=O)NCC1CCCO1 (stereo not drawn)

> 195 µM (not active)
> 195 µM (not active)

Could you report EC50 for every entry in the following list?
1. CCN(C(=O)c1ccc2c(SCC(=O)O)c3c(nc2c1)CCC3)c1cc(Cl)ccc1OC
2. O=C(Cn1[nH]c(=O)c2ccccc2c1=O)OCC(=O)c1ccccc1Cl
3. Cc1nc([N+](=O)[O-])cn1-c1ccc(N)cc1
4. Cc1ccccc1NC(=O)COC(=O)c1ccc(S(C)(=O)=O)c([N+](=O)[O-])c1
5. O=C(CCl)Nc1ccccc1C(=O)c1ccccc1

1: > 195 µM (not active); 2: > 195 µM (not active); 3: > 195 µM (not active); 4: 6.14 µM (active); 5: > 195 µM (not active)

* * *

assay.comment: C. albicans growth with fluconazole, confirmation, fluorescence, retest (AID 2467)
Type: functional, cell-based
Calls of active or inactive are those of the source.
reported.property: EC50

Example entries and their recorded answers appear below.
[
  {
    "record.smiles": "C=CCn1c[n+](CC(=O)c2ccc(Br)s2)c2ccccc21",
    "reported.property": "EC50",
    "result": "> 38 µM (not active)"
  },
  {
    "record.smiles": "CC1(C)CC(N2CCCC2)=CC(=[N+]2CCCC2)C1",
    "reported.property": "EC50",
    "result": "2.7 µM (active)"
  },
  {
    "record.smiles": "Cc1nnc(NC(=O)c2c(-c3ccccc3Cl)noc2C)s1",
    "reported.property": "EC50",
    "result": "4.42 µM (active)"
  },
  {
    "record.smiles": "Cc1ccc(S(=O)(=O)c2c(C)nn(C(C)(C)C)c2OC(=O)c2ccc(Br)o2)cc1",
    "reported.property": "EC50",
    "result": "0.805 µM (active)"
  }
]

Any idea what its EC50 is? The compound is `Cc1cc(/C=N/n2c(COc3ccccc3C)nc3ccccc3c2=O)c(O)c([N+](=O)[O-])c1`
1.37 µM (active)
